- System: Bowes
- methodNotes: drug sensitivity score (DSS) (DSS (unitless, 0-50 scale)); higher = more sensitive (stronger viability inhibition); extreme values may be limits of the assay
- assayConditions: 72 h; culture: 2D
Parameter: drug sensitivity score. Scope: all listed entries.
Give your answer as a number; write no unit.

Solved cases below.
> print(dat)
                                   compound  valueobserved
1  CN(CC(=O)N(Cc1ccc(C2CCCCC2)cc1)c1ccc(C(=O)O)cc1)S(=O)(=O)c1c(F)c(F)c(F)c(F)c1F            7.1
2  CNc1nc(Nc2cn(C(C)(C)C#N)nc2C)ncc1C(F)(F)F              0
3  CC(=O)Nc1cccc(-n2c(=O)n(C3CC3)c(=O)c3c(Nc4ccc(I)cc4F)n(C)c(=O)c(C)c32)c1            1.8

Please report drug sensitivity score for the following compound: N#CC(c1ccnc(OCc2ccc(CN3CCOCC3)cc2)n1)c1nc2ccccc2s1 (stereo not drawn) 1.4

Please report drug sensitivity score for the following compound: O=C1c2c(O)ccc(O)c2C(=O)c2c(NCCNCCO)ccc(NCCNCCO)c21 6.7

Please report drug sensitivity score for the following compound: CC(C)(C)c1nc(-c2cccc(NS(=O)(=O)c3c(F)cccc3F)c2F)c(-c2ccnc(N)n2)s1 1.1

Please report drug sensitivity score for the following compound: N#Cc1ccc(C(c2ccc(C#N)cc2)n2cncn2)cc1 0

Please report drug sensitivity score for the following compound: CC(C)[C@H](C(=O)Nc1ccc(C(=O)NO)cc1)c1ccccc1 6

###

- Test system: Bowes
- methodNotes: drug sensitivity score (DSS) (DSS (unitless, 0-50 scale)); higher = more sensitive (stronger viability inhibition); extreme values may be limits of the assay
- assayConditions: 72 h; culture: 2D
Parameter: drug sensitivity score. Scope: all listed entries.
Give your answer as a number; write no unit.

Solved cases below.
compound	testedSystem	drug sensitivity score
Cc1cc(F)c(C(=O)Nc2cccc(-c3nncn3C(C)C)n2)cc1-n1cnc(C2CC2)c1	Bowes	0
Cn1cc(CNCC2CCN(c3ncc(C(=O)NO)cn3)CC2)c2ccccc21	Bowes	9
Cc1ccc(-n2nc(C(C)(C)C)cc2NC(=O)Nc2ccc(OCCN3CCOCC3)c3ccccc23)cc1	Bowes	0
Cn1ncc(Cl)c1-c1cc(C(=O)N[C@H](CN)Cc2ccc(F)c(F)c2)oc1Cl	Bowes	0

Please report drug sensitivity score for the following compound: C/C=C1\NC(=O)[C@H]2CSSCC/C=C/[C@H](CC(=O)N[C@H](C(C)C)C(=O)N2)OC(=O)[C@H](C(C)C)NC1=O 18.6

Please report drug sensitivity score for the following compound: COc1cc2ncnc(Nc3ccc(F)c(Cl)c3)c2cc1OCCCN1CCOCC1 2.9

Please report drug sensitivity score for the following compound: CCC1(c2ccc(N)cc2)CCC(=O)NC1=O (stereo not given) [Aminoglutethimide] 0

Please report drug sensitivity score for the following compound: Cn1cncc1[C@@](N)(c1ccc(Cl)cc1)c1ccc2c(c1)c(-c1cccc(Cl)c1)cc(=O)n2C 21.1

Please report drug sensitivity score for the following compound: CNC(=O)c1cc(Oc2ccc(NC(=O)Nc3ccc(Cl)c(C(F)(F)F)c3)c(F)c2)ccn1 6.7

###

- System: Bowes
- methodNotes: drug sensitivity score (DSS) (DSS (unitless, 0-50 scale)); higher = more sensitive (stronger viability inhibition); extreme values may be limits of the assay
- assayConditions: 72 h; culture: 2D
measuredMetric: drug sensitivity score
Give your answer as a number; write no unit.

Solved cases below.
> print(dat)
                                   compound  valueobserved
1  COc1cc(CCc2cc(NC(=O)c3ccc(N4CC(C)NC(C)C4)cc3)n[nH]2)cc(OC)c1 (stereo not drawn)              0
2  CN(C)CC#Cc1ccc(OCCCc2sc(N3CCc4cccc(C(=O)Nc5nc6ccccc6s5)c4C3)nc2C(=O)O)c(F)c1            0.5
3  CCNCCS(=O)(=O)NC[C@@]1(c2ccccc2)SC(NC(=O)C(C)(C)C)=NN1C(=O)C(C)(C)C           18.8
4  C=CC(=O)N1CC/C(=C\c2ccc(F)c([N+](=O)[O-])c2)C(=O)/C(=C/c2ccc(F)c([N+](=O)[O-])c2)C1           23.8
5  Cc1cc([C@@H](C)Nc2ccccc2C(=O)O)c2nc(N3CCOCC3)cc(=O)n2c1            1.2

Please report drug sensitivity score for the following compound: Cc1cc(OCc2nnc(SC3CCCC3)n2-c2cccnc2)ccc1-c1ccc(S(C)(=O)=O)cc1 11.1

Please report drug sensitivity score for the following compound: CC(C)n1cnc2c(NCCc3ccc(O)cc3)nc(-c3csc4ccccc34)nc21 1.1

Please report drug sensitivity score for the following compound: O=C(/C=C/c1cccnc1)NCCCCC1CCN(C(=O)c2ccccc2)CC1 32.7
